- TARGET DESC: BACE1 (Homo sapiens (Human))
- Sequence (P56817 46-501): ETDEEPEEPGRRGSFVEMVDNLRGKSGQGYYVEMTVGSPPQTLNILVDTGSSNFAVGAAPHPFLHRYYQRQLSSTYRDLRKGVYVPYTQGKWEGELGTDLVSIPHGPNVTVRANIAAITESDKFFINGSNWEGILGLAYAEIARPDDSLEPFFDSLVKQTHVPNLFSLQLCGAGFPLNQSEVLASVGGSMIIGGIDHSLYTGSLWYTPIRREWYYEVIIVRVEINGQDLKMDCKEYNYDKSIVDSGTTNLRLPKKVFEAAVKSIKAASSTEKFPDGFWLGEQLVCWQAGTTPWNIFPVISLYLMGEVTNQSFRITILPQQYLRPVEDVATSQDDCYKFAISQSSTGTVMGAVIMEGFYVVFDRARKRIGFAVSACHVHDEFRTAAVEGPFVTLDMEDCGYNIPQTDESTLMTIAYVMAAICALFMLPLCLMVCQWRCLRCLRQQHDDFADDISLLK
- PROTOCOL SUMMARY: Measurement of Aβ production inhibition in cell (SK-N-BE(2) neuroblastoma cells, Aβ40 ELISA)
- ASSAY CONDITIONS: Test Example 3 IC50, Aβ40 production, SK-N-BE(2) cells, 6 hours
Counter-ions that a name gives are not always drawn.
QUANTITY: IC50 (nM)

compound="COCc1cnn(-c2ccc3c(c2)C2(COC(N)=N2)C2(COC2)C2(CCC2)O3)c1 (stereo not drawn)" target_desc="BACE1 (Homo sapiens (Human))" quantity=IC50 value=7200
compound="CC1(C)Oc2ccc(-c3cccc(Cl)c3)cc2C2(COC(N)=N2)C12COC2 (stereo not drawn)" target_desc="BACE1 (Homo sapiens (Human))" quantity=IC50 value=140
compound="CC1(C)Oc2ccc(-c3cccnc3Cl)cc2C2(COC(N)=N2)C12COC2 (stereo not drawn)" target_desc="BACE1 (Homo sapiens (Human))" quantity=IC50 value=180
compound="NC1=NC2(CO1)c1cc(Nc3ncccc3Cl)ccc1OCC21COC1 (stereo not drawn)" target_desc="BACE1 (Homo sapiens (Human))" quantity=IC50 value=1400
compound="CC1(C)Oc2ccc(-c3cncnc3)cc2C2(COC(N)=N2)C12COC2 (single isomer, unassigned) [RP 51b]" target_desc="BACE1 (Homo sapiens (Human))" quantity=IC50 value=72
compound="CCOc1cncc(-c2ccc3c(c2)C2(COC(N)=N2)C2(CC2)CO3)c1 (stereo not drawn)" target_desc="BACE1 (Homo sapiens (Human))" quantity=IC50 value=160
compound="CCc1cncc(-c2ccc3c(c2)C2(COC(N)=N2)C2(CC2)CO3)c1 (stereo not drawn)" target_desc="BACE1 (Homo sapiens (Human))" quantity=IC50 value=3300
compound="NC1=NC2(CO1)c1cc(-c3cncc(C(F)F)c3)ccc1OC1(CCC1)C21COC1 (stereo not drawn)" target_desc="BACE1 (Homo sapiens (Human))" quantity=IC50 value=990
compound="CC(C)CC1Oc2ccc(-c3cncnc3)cc2C2(COC(N)=N2)C12COC2 (stereo not drawn)" target_desc="BACE1 (Homo sapiens (Human))" quantity=IC50 value=370
compound="Cc1cc(-c2ccc3c(c2)C2(COC(N)=N2)C2(COC2)C(C)(C)O3)cnc1F (stereo not drawn)" target_desc="BACE1 (Homo sapiens (Human))" quantity=IC50 value=660
compound="Cc1cncc(-c2ccc3c(c2)C2(COC(N)=N2)C2(COC2)C2(CCC2)O3)c1 (stereo not drawn)" target_desc="BACE1 (Homo sapiens (Human))" quantity=IC50 value=1100
compound="COc1cncc(-c2ccc3c(c2)[C@@]2(COC(N)=N2)C2(COC2)[C@@H](C)O3)c1 (racemic)" target_desc="BACE1 (Homo sapiens (Human))" quantity=IC50 value=510
compound="CC#Cc1cncc(-c2ccc3c(c2)C2(CSC(N)=N2)C2(COC2)CO3)c1 (stereo not drawn)" target_desc="BACE1 (Homo sapiens (Human))" quantity=IC50 value=500
compound="CC1(C)Oc2ccc(-c3cccc(C(F)(F)F)c3)cc2C2(COC(N)=N2)C12COC2 (stereo not drawn)" target_desc="BACE1 (Homo sapiens (Human))" quantity=IC50 value=1300
compound="NC1=NC2(CO1)c1cc(-c3cncnc3)ccc1OC(C1CC1)C21COC1 (stereo not drawn)" target_desc="BACE1 (Homo sapiens (Human))" quantity=IC50 value=1400
compound="NC1=NC2(CO1)c1cc(-c3cncnc3)ccc1OCC21CC(F)(F)C1 (stereo not drawn)" target_desc="BACE1 (Homo sapiens (Human))" quantity=IC50 value=6100
compound="CC1(C)Oc2ccc(-c3cncnc3)cc2C2(CSC(N)=N2)C12COC2 (stereo not drawn) [RP 54, hydrochloride]" target_desc="BACE1 (Homo sapiens (Human))" quantity=IC50 value=79
compound="NC1=NC2(CO1)c1cc(-c3cccnc3)ccc1OC1(CCC1)C21COC1 (stereo not drawn)" target_desc="BACE1 (Homo sapiens (Human))" quantity=IC50 value=830
